Target: L-lactate dehydrogenase (Plasmodium falciparum (isolate CDC / Honduras))
Test: PfLDH activity inhibition – cell lysate, 3D7 strain, counter-screen for P. falciparum growth inhibition project (AID 2304);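 further: 0% = vehicle and 100% = reference inhibitor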
Settings: P. falciparum 3D7 crude extract, LDH APAD/NBT absorbance; at 2 µM; stronger effect = higher value
Active and inactive are the calls of the source. How the calls were made is not given here.
// reported inhibition for each item listed

Lookup: inhibition / L-lactate dehydrogenase (Plasmodium falciparum (isolate CDC / Honduras)) / COc1ccc2c(NN=Cc3ccc(N(C)C)cc3)ccnc2c1
-1% (inactive)

---

Experiment: inhibition of 3D7 malaria parasite growth – strain 3D7 (AID 2306);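 further: 0% = DMSO wells and 100% = chloroquine plus artemisinin control wells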
Conditions: P. falciparum 3D7 erythrocytic growth, LDH absorbance, 72 h; at 2 µM; stronger effect = higher value
// reported growth inhibition for each item listed
Form entry: value (%) — number only.

# count of solved cases: 2
compound | observation type | measurement units | observed result
O=C(Nc1cccc(CN2CCCN(Cc3ncc[nH]3)CC2)c1)c1ccc(-c2ccccc2)cc1 | growth inhibition | % | 101
CC(C)Cc1c(O)nc(SCCN2CCOCC2)[nH]c1=O | growth inhibition | % | 88

Name the reported growth inhibition value associated with the compound COc1ccc2nccc([C@@H](O)CN3CCC(NCc4ccc(OC)c(NC(C)=O)c4)CC3)c2c1
90

Again, but for Cc1ccc2[nH]c(C3CCCNC3)c(-c3ccncc3)c2c1 (centres undefined)
101

Again, but for Cc1cccc2[nH]c(-c3cccc(-c4ccc(NC(=O)CN5CCN(C)CC5)cc4)c3)nc12
101

Again, but for CCCC(C)Nc1nc(C)cc(N[C@@H](CC(C)C)C(=O)NCc2cccc(F)c2)n1 (some centres undefined)
96

Again, but for Cc1cc(N2CCCN(C)CC2)nc(Nc2ccc(Br)cc2)n1
94

Again, but for CCNc1cc(C(=O)N[C@@H](Cc2ccccc2)[C@H](O)CNC2(C)CCCCC2)cc(N2CCCCS2(=O)=O)c1
100

Again, but for CCN(CC)CCN(Cc1ccc(-c2ccc(C(F)(F)F)cc2)cc1)C(=O)c1ccc(-c2ccc(NC(=O)OC)cc2C)cc1
93

---

Assay: inhibition of 3D7 malaria parasite growth – strain 3D7 (AID 2306);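 further: 0% = DMSO wells and 100% = chloroquine plus artemisinin control wells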
Details: P. falciparum 3D7 erythrocytic growth, LDH absorbance, 72 h; at 2 µM; stronger effect = higher value
observation type: growth inhibition (%)
Form entry: value (%) — number only.

# count of solved cases: 5
compound | observed result
O=C(Nc1ccc(-c2ccc(-c3nc4ccccc4[nH]3)s2)cc1)Nc1ccsc1 | 100
O=C(/C=C/c1cccc2ccccc12)NCCCCCN1CCC(c2c[nH]c3ccccc23)CC1 | 92
CN(C)Cc1cccc(-c2ccc(NC(=O)c3ccc4c(=O)n(CC5CCCO5)cnc4c3)cc2)c1 (configuration not stated) | 97
C=C[C@]1(C)C[C@@H](OC(=O)NC(=O)C2CCN(C(=O)CSc3ccccc3)CC2)[C@]2(C)[C@H](C)CC[C@]3(CCC(=O)[C@H]32)[C@@H](C)[C@@H]1O | 93
O=C(NCc1cccc(F)c1)Nc1ccc(-c2cccc(-c3nc4ccc(F)cc4[nH]3)c2)cc1 | 88

Name the reported growth inhibition value associated with the compound COc1cccc2c(NN=Cc3ccccc3Cl)cc(C)nc12
102

Again, but for COc1ccc(NC(=O)NC2CCN(c3ccnc4ccccc34)C2)cc1 (configuration not stated)
94

Again, but for c1ccc2c(NCCc3cnc[nH]3)c3ccccc3nc2c1
91

Again, but for Nc1cccc(CNCc2cccc(-c3cccc(-c4nc5ccc(F)cc5[nH]4)c3)c2)c1
102

Again, but for CCN(CCCN1CCCCC1)c1cc(C)nc(Nc2ccc(C)c(Br)c2)n1
102

Again, but for Cc1cc(-c2ccc3c(c2)CCN(CCCOc2ccc4c(c2)CCN4C(=O)/C=C/c2ccccc2Cl)CC3)no1
88

Again, but for COc1cc(NCCCNC(=O)c2cc3c(Cl)cc(Cl)cc3[nH]2)nc2ccccc12
100

Again, but for Cc1[nH]c(C)c(-c2ccc(CCc3cccc(C(F)(F)F)c3)nc2)c(=O)c1Cl
99

Again, but for NC1CCCN(Cc2ccc(-c3ccc(-c4nc5ccc(F)cc5[nH]4)s3)cc2)C1 (configuration not stated)
100

Again, but for COc1ccc(N2CCN(CCCNC(=O)c3ccc(NC(=O)c4cc(Cl)cc(Cl)c4)cc3)CC2)c(OC)c1
101

Again, but for Oc1ccccc1-c1nc2cccnc2n1CCc1cccc(C(F)(F)F)c1
93

Again, but for O=C(Nc1ccccc1)N1CCC(CN2CCOC(c3ccccc3)(c3ccccc3)C2)CC1
96

Again, but for O=C(Nc1cccc(CN2CCCN(Cc3ccccc3)CC2)c1)c1ccc(Cl)c(Cl)c1
95

---

// reported inhibition for each item listed
Biological target: L-lactate dehydrogenase (Plasmodium falciparum (isolate CDC / Honduras)) (UniProt Q27743)
Sequence (Q27743 whole entry, looked up): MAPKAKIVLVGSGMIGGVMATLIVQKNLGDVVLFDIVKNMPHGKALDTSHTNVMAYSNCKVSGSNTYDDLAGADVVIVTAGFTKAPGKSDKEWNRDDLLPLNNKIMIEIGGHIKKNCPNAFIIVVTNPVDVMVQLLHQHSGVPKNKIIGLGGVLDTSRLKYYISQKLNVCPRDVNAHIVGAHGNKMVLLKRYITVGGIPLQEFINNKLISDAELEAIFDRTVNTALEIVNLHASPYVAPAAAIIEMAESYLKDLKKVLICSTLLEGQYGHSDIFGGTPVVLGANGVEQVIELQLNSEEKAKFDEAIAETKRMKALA
Assay: PfLDH activity inhibition – cell lysate, 3D7 strain, counter-screen for P. falciparum growth inhibition project (AID 2304);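 further: 0% = vehicle and 100% = reference inhibitor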
Conditions: P. falciparum 3D7 crude extract, LDH APAD/NBT absorbance; at 2 µM; stronger effect = higher value
Activity calls are given as the source filed them. No rule for the calls is given here.

# count of solved cases: 6
compound | study target | inhibition
Cc1ccccc1C1CCN(C2CCC(NC(=O)/C=C/c3cc(F)ccc3F)CC2)CC1 (stereo not given) | L-lactate dehydrogenase (Plasmodium falciparum (isolate CDC / Honduras)) (UniProt Q27743) | -2% (inactive)
CCC(C)NC(=O)Nc1ccc(-c2cccc(-c3nc4ccccc4[nH]3)c2)cc1 (stereo not given) | L-lactate dehydrogenase (Plasmodium falciparum (isolate CDC / Honduras)) (UniProt Q27743) | 7% (inactive)
Cc1cccc(CNc2nc(C)cc(NCCC(=O)NCc3cccc(F)c3)n2)c1 | L-lactate dehydrogenase (Plasmodium falciparum (isolate CDC / Honduras)) (UniProt Q27743) | -1% (inactive)
O=C(Nc1ccc2nccc(N3CCN4CCC[C@H]4C3)c2c1)c1ccc(Cl)c(Cl)c1 | L-lactate dehydrogenase (Plasmodium falciparum (isolate CDC / Honduras)) (UniProt Q27743) | -8% (inactive)
O=C(NCc1cccc(F)c1)Nc1cccc(-c2ccc(-c3nc4ccc(F)cc4[nH]3)cc2)c1 | L-lactate dehydrogenase (Plasmodium falciparum (isolate CDC / Honduras)) (UniProt Q27743) | -3% (inactive)
COc1ccc(S(=O)(=O)N2CCC(NS(=O)(=O)c3ccc(F)cc3)CC2)cc1 | L-lactate dehydrogenase (Plasmodium falciparum (isolate CDC / Honduras)) (UniProt Q27743) | 0% (inactive)

Name the reported inhibition value associated with the compound c1cc(-c2ccc(CN3CCN(c4ccncc4)CC3)cc2)cc(-c2nc3ccccc3[nH]2)c1
-2% (inactive)

Again, but for COc1cc(CCON2C(N)=NC(N)=NC2(C)C)cc(OC)c1OC
-1% (inactive)

---

Test: antimalarial activity against Dd2 strain (AID 2302);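 further: 0% = DMSO untreated growth and 100% = chloroquine plus artemisinin killed control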
Conditions: P. falciparum Dd2 in RBCs, LDH growth readout, 72 h; at 2 µM; stronger effect = higher value
Mark false (0) for growth inhibition values under 90%, and true (1) for everything at or above.

molecule | label
CCOc1cc(C(=O)Nc2ccc(-c3nc4ccccc4[nH]3)cc2)cc(OCC)c1OCC | true (1)

Now consider a different molecule.
Given Cc1cccc2[nH]c(-c3ccc(-c4cccc(NC(=O)Cc5cnc[nH]5)c4)cc3)nc12 , state whether its growth inhibition is at least 90%.
false (0)

---

Target: L-lactate dehydrogenase (Plasmodium falciparum (isolate CDC / Honduras))
Assay: PfLDH activity inhibition – cell lysate, 3D7 strain, counter-screen for P. falciparum growth inhibition project (AID 2304);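 further: 0% = vehicle and 100% = reference inhibitor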
Conditions: P. falciparum 3D7 crude extract, LDH APAD/NBT absorbance; at 2 µM; stronger effect = higher value
// reported inhibition for each item listed
Form entry: value (%) — number only.

# count of solved cases: 3
compound | observed result
Oc1ccc2[nH]cc(C3CCN(CCCCCCCCCN4CCC(c5c[nH]c6ccc(O)cc56)CC4)CC3)c2c1 | -5
Cc1ccc(Cn2ncc(N3CCNCC3)c(Cl)c2=O)cc1NC(=O)Nc1ccc(-c2ccccc2)cc1 | 6
Cc1nc(-c2ccc(C#N)cc2)sc1C(=O)NCCCCN1CCC(c2ccc3c(c2OCCO)CCCC3)CC1 | 6

Name the reported inhibition value associated with the compound O=C(NCc1ccccc1)c1ccc(C(=O)NCC2CNCCO2)cc1 (stereo not given)
-4

Again, but for COc1ccc(Br)cc1C1Nc2ccc3ccccc3c2C2=C1C(=O)CC(c1ccccc1)C2 (stereo not given)
4

---

Target: L-lactate dehydrogenase (Plasmodium falciparum (isolate CDC / Honduras))
Test: PfLDH activity inhibition – cell lysate, 3D7 strain, counter-screen for P. falciparum growth inhibition project (AID 2304);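 further: 0% = vehicle and 100% = reference inhibitor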
Settings: P. falciparum 3D7 crude extract, LDH APAD/NBT absorbance; at 2 µM; stronger effect = higher value
// reported inhibition for each item listed
Form entry: value (%) — number only.

# count of solved cases: 5
molecule | study target | measurement units | inhibition
CCCOc1ccc(OCCCON2C(N)=NC(N)=NC2(C)C)cc1 | L-lactate dehydrogenase (Plasmodium falciparum (isolate CDC / Honduras)) | % | 5
CCNC(=O)Nc1ccc(-c2cccc(-c3nc4c(C)cccc4[nH]3)c2)cc1 | L-lactate dehydrogenase (Plasmodium falciparum (isolate CDC / Honduras)) | % | -8
COc1cc(/C=C/C(=O)NC2CCC(N3CCC(c4ccccc4C)CC3)CC2)cc(OC)c1 (centres undefined) | L-lactate dehydrogenase (Plasmodium falciparum (isolate CDC / Honduras)) | % | -4
Cc1ccc(NC(=O)c2cc([N+](=O)[O-])ccc2NCc2cccnc2)cc1Cl | L-lactate dehydrogenase (Plasmodium falciparum (isolate CDC / Honduras)) | % | -5
Cc1cc(CN2CCCN(c3ccc4c(c3)CCN(Cc3ccc(-c5ncc[nH]5)cc3)CC4)CC2)n(C)n1 | L-lactate dehydrogenase (Plasmodium falciparum (isolate CDC / Honduras)) | % | 5

Name the reported inhibition value associated with the molecule Fc1ccc(-c2oc(C3CCN(CCc4ccc(-c5nc(=S)o[nH]5)cc4)CC3)nc2COCC(F)(F)F)cc1
3

Again, but for CCCN(CCCCCCN(CCC)CCc1ccc(O)c(O)c1)CCc1ccc(O)cc1
-1

Again, but for Cc1nnsc1C(=O)Nc1cccc(-c2ccc(-c3nc4ccc(C(F)(F)F)cc4[nH]3)cc2)c1
3

Again, but for O=C(Nc1ccc(OC(F)(F)F)cc1)NC1CCN(c2ccnc3ccccc23)CC1
-7
